# assayed_system: Acetylcholinesterase (Homo sapiens, UniProt P22303)
# Sequence (P22303 whole entry): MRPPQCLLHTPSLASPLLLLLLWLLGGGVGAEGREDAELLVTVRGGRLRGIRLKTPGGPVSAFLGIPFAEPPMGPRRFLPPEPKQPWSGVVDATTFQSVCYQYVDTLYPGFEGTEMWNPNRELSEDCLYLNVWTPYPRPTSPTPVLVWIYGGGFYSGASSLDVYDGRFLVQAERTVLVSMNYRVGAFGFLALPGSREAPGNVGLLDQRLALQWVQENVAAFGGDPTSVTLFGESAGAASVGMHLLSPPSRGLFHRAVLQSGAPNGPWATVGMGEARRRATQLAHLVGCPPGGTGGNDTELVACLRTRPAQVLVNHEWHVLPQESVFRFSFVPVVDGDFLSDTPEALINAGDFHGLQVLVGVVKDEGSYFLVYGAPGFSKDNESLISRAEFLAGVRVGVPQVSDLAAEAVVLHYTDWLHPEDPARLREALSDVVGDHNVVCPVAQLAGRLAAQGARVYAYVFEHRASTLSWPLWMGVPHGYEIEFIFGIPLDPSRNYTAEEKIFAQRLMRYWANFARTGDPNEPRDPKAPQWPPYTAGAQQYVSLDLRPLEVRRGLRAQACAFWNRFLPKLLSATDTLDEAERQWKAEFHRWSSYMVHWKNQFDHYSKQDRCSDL
# method_summary: Inhibition of recombinant human AChE using acetylthiocholine iodide as substrate measured over 60 secs by Ellman assay
The following molecules are listed with their measured pIC50 values.
The scale used: pIC50 is minus the common logarithm of the concentration in molar units.

# example entries with known answers
O=C(COc1ccc(-c2ccccc2)cc1)N1CCC(N2CCCCC2)CC1 | 5.34
COc1ccc(-c2ccc(OCC(=O)NCCCN3CCN(C)CC3)cc2)cc1 | 3.72
CCN1CCN(C2CCN(C(=O)COc3ccc(-c4ccc(OC)cc4)cc3)CC2)CC1 | 4.74
CCN1CCN(C2CCN(C(=O)COc3ccc4c(c3)CCC4=O)CC2)CC1 | 5.31
CN1CCN(C2CCN(C(=O)COc3ccc(-c4ccccc4)cc3)CC2)CC1 | 5.00
O=C(COc1ccc(-c2ccccc2)cc1)NCCCN1CCCCC1 | 4.24
CN1CCN(CCCNC(=O)COc2ccc(I)cc2)CC1 | 3.86
CCN1CCN(C2CCN(C(=O)COc3ccc(I)cc3)CC2)CC1 | 4.70

Reported pIC50, molecule CCN1CCN(C2CCN(C(=O)COc3ccc(-c4ccccc4F)cc3)CC2)CC1 : ____
4.72

Please give the result for CCN1CCN(C2CCN(C(=O)COc3ccc(-c4ccc([N+](=O)[O-])cc4)cc3)CC2)CC1 too.
5.68

Also need O=C(COc1ccc(I)cc1)NCCCN1CCCCC1 , thanks.
4.89
